# Tested On: AHR (Homo sapiens)
# Construct: U87 MG glioblastoma cells (ATCC #HTB-14) endogenously expressing AHR; endogenous in cells; host or cells: U87 MG glioblastoma cells (ATCC #HTB-14)
# Sequence (P35869 11-848): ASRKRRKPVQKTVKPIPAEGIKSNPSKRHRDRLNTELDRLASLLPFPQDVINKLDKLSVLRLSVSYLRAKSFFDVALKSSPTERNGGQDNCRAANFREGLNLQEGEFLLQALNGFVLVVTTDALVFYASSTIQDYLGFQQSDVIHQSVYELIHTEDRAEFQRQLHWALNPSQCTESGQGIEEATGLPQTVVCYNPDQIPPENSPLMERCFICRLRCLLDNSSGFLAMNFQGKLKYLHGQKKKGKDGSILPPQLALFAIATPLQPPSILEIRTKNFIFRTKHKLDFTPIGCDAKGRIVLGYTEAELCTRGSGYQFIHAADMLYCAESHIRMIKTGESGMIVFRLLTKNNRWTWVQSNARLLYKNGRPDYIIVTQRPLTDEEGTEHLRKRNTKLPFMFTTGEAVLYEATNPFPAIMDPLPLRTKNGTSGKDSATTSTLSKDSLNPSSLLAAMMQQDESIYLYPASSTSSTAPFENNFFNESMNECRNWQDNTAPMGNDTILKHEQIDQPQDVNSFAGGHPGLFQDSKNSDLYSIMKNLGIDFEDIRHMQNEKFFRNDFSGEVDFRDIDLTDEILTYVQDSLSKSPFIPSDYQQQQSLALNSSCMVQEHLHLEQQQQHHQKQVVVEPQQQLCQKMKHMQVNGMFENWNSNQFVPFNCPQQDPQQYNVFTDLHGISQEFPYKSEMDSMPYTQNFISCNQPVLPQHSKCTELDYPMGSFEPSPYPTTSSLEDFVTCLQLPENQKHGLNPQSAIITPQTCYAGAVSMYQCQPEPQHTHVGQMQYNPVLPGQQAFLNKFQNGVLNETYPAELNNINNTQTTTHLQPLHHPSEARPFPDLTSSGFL
# Experimental Protocol: In vitro assay 1: antagonism in human cell line (AHR transactivation, firefly luciferase reporter, kynurenic acid prestimulated)
# Type: cell-based
# Measurement Parameters: AHR Antagonism Human IC50 [M]
Measured Endpoint: IC50 (M)
Numbers only, in M.

Solved entries:
O=C1NCCCC[C@H]1Nc1nc2c(C(F)(F)F)cccc2c2nc(-c3cnn(CC4CC4)c3)nn12 [Example 742] ... 8.31e-10
O=C1NCCCC[C@H]1Nc1nc2ccccc2c2nc(-c3ccsc3Cl)nn12 [Example 611] ... 4.36e-09
Cc1cc(-c2nc3c4ccccc4nc(N[C@@H]4CCN(C)C4=O)n3n2)cs1 [Example 355] ... 3.79e-08
Cn1cc(-c2nc3c4cc(Cl)ccc4nc(N[C@@H]4CCCCNC4=O)n3n2)cn1 [Example 236] ... 2.62e-08
COc1cscc1-c1nc2c3ccccc3nc(N[C@@H]3CCCCNC3=O)n2n1 [Example 333] ... 2.74e-08

Parameter requested: IC50. Apply to each item below.
1. CN1CCCC[C@@H](Nc2nc3c(C(F)(F)F)cccc3c3nc(-c4cnn(C)c4)nn23)C1=O [Example 739]
2. CC[C@@H](Nc1nc2ccccc2c2nc(-c3ccsc3C)nn12)C(N)=O [Example 351]
3. COc1ccc(-c2nc3c4ccc(OC)cc4nc(N[C@@H]4CNCCNC4=O)n3n2)cc1 [Example 272]
4. COc1cccc(-c2nc3c4c(C)cccc4nc(NC4CCNC4=O)n3n2)c1 (centres unmarked) [Example 179]
5. CC[C@@H](Nc1nc2c(Br)cccc2c2nc(-c3ccc(Cl)cc3OC(F)F)nn12)C(N)=O [Example 577]
6. CC[C@@H](Nc1nc2ccccc2c2nc(-c3ccc(Cl)cc3OC(F)F)nn12)C(N)=O [Example 531]

Outgoing:
1. 6.64e-10
2. 1.37e-09
3. 2.77e-06
4. 1.01e-07
5. 6.6e-10
6. 1.29e-09

Batch: IC50 for all items listed.
1. Cc1cccc2nc(N[C@@H]3CCCCNC3=O)n3nc(-c4cnn(C)c4)nc3c12 [Example 183]
2. O=C1NCCCC[C@H]1Nc1nc2c(F)cccc2c2nc(-c3ccncc3)nn12 [Example 552]
3. CC[C@@H](Nc1nc2ccccc2c2nc(-c3ccc(OC)cc3)nn12)C(N)=O [Example 379]

Outgoing:
2.48e-08
1.28e-07
7.6e-10
